What pest or weed control at 35 g/ha was measured for each of the following?
- Tested on: VIOSS: wild pansy (Viola tricolor), field violet (Viola arvensis)
- assay.text: Post-emergent Test III, herbicidal activity in wheat and barley
- Format: in vivo
- measurement.parameters: Viola tricolor, post-emergence, 504 h; 35 g ai/ha; 21 days after application; read-out: Visual Gorowth Reduction (%) 21 days After Application VIOSS

{"smiles.record": "COC(=O)c1nc(-c2ccc(Br)cc2F)c(F)c(N)c1Cl", "assay.endpoint": "pest or weed control at 35 g/ha", "readout.value": "95 to 100%"}
{"smiles.record": "COC(=O)c1nc(-c2ccc(I)c(F)c2F)c(F)c(N)c1Cl", "assay.endpoint": "pest or weed control at 35 g/ha", "readout.value": "95 to 100%"}
{"smiles.record": "COC(=O)c1nc(-c2ccc(I)c(F)c2F)cc(N)c1Cl", "assay.endpoint": "pest or weed control at 35 g/ha", "readout.value": "75 to 84%"}
{"smiles.record": "Nc1c(F)c(-c2ccc(Br)c(F)c2)nc(C(=O)O)c1Cl", "assay.endpoint": "pest or weed control at 35 g/ha", "readout.value": "95 to 100%"}
{"smiles.record": "COC(=O)c1nc(-c2ccc(I)c(F)c2)c(F)c(N)c1Cl", "assay.endpoint": "pest or weed control at 35 g/ha", "readout.value": "95 to 100%"}

Moving on to another compound below.
Param request: pest or weed control at 35 g/ha | system VIOSS: wild pansy (Viola tricolor), field violet (Viola arvensis) | item `Nc1c(F)c(-c2ccc(Br)cc2F)nc(C(=O)O)c1Cl`
75 to 84%

Where do these numbers come from? They come from patent US9113629B2.
